- Test system: Human C3-[…]
- assay_name: C3 deposition assay, human serum on mannan-coated plates
- Type: biochemical
- protocol_conditions: average IC50, read-out: Human C3-DEPOSITION SERUM IC50
Structures can show the parent of a compound that is named as a salt.
measured_endpoint: IC50 (nM)

CCC(C)[C@H](NC(=O)[C@H]1NC(=O)[C@H]([C@@H](C)CC)NC(=O)[C@@H]2C[C@@H]3CCCC[C@@H]3N2C(=O)[C@@H]2CCCN2C(=O)[C@H](CC(C)C)NC(=O)[C@H](CO)NC(=O)[C@H](CCCNC(=N)N)NC(=O)[C@H](CO)NC(=O)[C@@H](NC(=O)[C@@H](NC(=O)[C@H](C)NC)[C@@H](C)CC)CSSC1(C)C)C(=O)N1CCC[C@H]1C(=O)N[C@@H](CC(=O)NCc1ccccc1)C(N)=O (stereo in doubt) ... 61
CC[C@H](C)[C@H](NC(=O)[C@H](C)N)C(=O)N[C@H]1CSSC(C)(C)[C@@H](C(=O)N[C@H](C(=O)N2CCC[C@H]2C(=O)N[C@@H](CC(=O)O)C(=O)O)[C@@H](C)CC)NC(=O)[C@H]([C@@H](C)CC)NC(=O)[C@@H]2C[C@@H]3CCCC[C@@H]3N2C(=O)[C@@H]2CCCN2C(=O)[C@H](CC(C)C)NC(=O)[C@H](CO)NC(=O)[C@H](CCCNC(=N)N)NC(=O)[C@H](CO)NC1=O [Example 29, (HCl Salt)] ... 6.99
CC[C@H](C)[C@H](NC(=O)[C@H](C)NC)C(=O)N[C@H]1CSSC(C)(C)[C@@H](C(=O)N[C@H](C(=O)N2CCC[C@H]2C(N)=O)[C@@H](C)CC)NC(=O)[C@H]([C@@H](C)CC)NC(=O)[C@@H]2C[C@@]3(CN2C(=O)[C@@H]2CCCN2C(=O)[C@@H](CC(C)(C)C)NC(=O)[C@H](CO)NC(=O)[C@H](CCCNC(=N)N)NC(=O)[C@H](CO)NC1=O)CC3(F)F (single isomer, unassigned; enantiomer 1) ... 25.2
